Just for reference, paper doi:10.1101/2021.12.25.474155 is where these values come from.

experimental.target: NCAP (SARS-CoV-2, UniProt P0DTC9)
test.details: competition
test.readout: binding result

siDGCR8-1 duplex (dsRNA, 5'-phosphate on both strands) RNA 1: CAUCGGACAAGAGUGUGAUUU RNA 2: AUCACACUCUUGUCCGAUGUU	binds
Tet3-9 (structured_RNA) RNA: GGACCGUCAAAUUGCGGGAAAGGGGUCAACAGCCGUUCAGUACCAAGUCUCAGGGGAAACUUUGAGAUGGCCUUGCAAAGGGUAUGGUAAUAAGCUGACGGACAUGGUCCUAACCACGCAGCCAAGUCCUAAGUCAACAGGAGACUGUUGAUAUGGAUGCAGUUCACAGACUAAAUGUCGGUCGGGGAAGAUGUAUUCUUCUCAUAAGAUAUAGUCGGACCUCUCCCGAAAGGGAGUUGGAGUACUCGAAAUUCGUUUGGAGGGCUGCAGGGCCCUCUAGA	binds
S8hp (structured_RNA) RNA: GGAAGGAGCUGGUGGCCAUAGUUACGGCGCCGAUCUAAAGUCAUUUGACUUAGGCGACGAGCUUGGCACUGAUCCUUAUGAAGAUUUUCAAGAAAACUGGAACACUAAACAUAGCAGUGGUGUUACCCGUGAACUCAUGCGUGAGCUUAACGGAGGGGCAUACACUCGCUAUGU	binds
